Assay: Apparent pKa of LNP formulations (TNS fluorescence assay)
Settings: LNP cationic lipid/DSPC/cholesterol/DMG-PEG 50/10/38.5/1.5 mol %, Table 3
Assay Metric: Apparant Pka

CCCCCCCCC(CCCCCC)COC(=O)CCCCCN(CCCCCC(=O)OCC(CCCCCC)CCCCCCCC)CCN(CCCCCCCCO)C1CCC1 (stereo not shown) | 5.822
CCCCCCCCC(CCCCCC)COC(=O)CCCCCN(CCCCCC(=O)OCC(CCCCCC)CCCCCCCC)C(=O)CCN(CCO)C1CCC1 (stereo not shown) | 5.801
CCCCCCCC(CCCCCCC)COC(=O)CCCCCN(CCCCCC(=O)OCC(CCCCCCC)CCCCCCC)CCN(CCC)C1CCC(O)CC1 (stereo not shown) | 6.613
CCCCC/C=C\CCCOC(=O)CCCCCN(CCCCCC(=O)OCCC/C=C\CCCCC)CCN(CCO)C1CCC1 | 6.438
CCCCCCC(CCCCCC)CC(=O)NCCCCCN(CCCCCOC(=O)CC(CCCCCC)CCCCCC)CCN(CCO)C1CCCCC1 | 6.686
CCCCCCCCC(CCCCCCCC)COC(=O)CCOCCN(CCOCCC(=O)OCC(CCCCCCCC)CCCCCCCC)CCN(CCO)C1CCCCC1 | 6.184
CCCCCCC(CCCCCC)CNC(=O)CCCCCN(CCCCCC(=O)OCC(CCCCCC)CCCCCC)CCN(CCO)C1CCCCCC1 | 6.766
CCCCCCCCC(CCCCCC)COC(=O)CCCCCC(CCCCCC(=O)OCC(CCCCCC)CCCCCCCC)CN(C)CCO (stereo not shown) | 9.356
CCCCCCCCC(CCCCCC)CNC(=O)CCCCCN(CCCCCC(=O)OCC(CCCCCC)CCCCCCCC)CCN(CCO)C1CC1 (stereo not shown) | 6.633
CCCCCCCCC(CCCCCCCC)CNC(=O)CCCCCN(CCCCCC(=O)OCC(CCCCCCCC)CCCCCCCC)CCN(CCO)C1CCCCCC1 | 6.518
CCCCCCCCC(CCCCCC)CNC(=O)NCCCCN(CCCCNC(=O)NCC(CCCCCC)CCCCCCCC)CCN(CCO)C1CCCCC1 (stereo not shown) | 7.048
CCCCCCCCC(CCCCCCCC)COC(=O)CCCCCN(CCCCCC(=O)OCC(CCCCCCCC)CCCCCCCC)CCN(CCO)C1CCOC1 (stereo not shown) | 6.515
CCCCCCC(CCCCCC)COC(=O)CCCCCN(CCCCCC(=O)OCC(CCCCCC)CCCCCC)CCN(CCC)C1CCC(O)CC1 (stereo not shown) | 6.712
